B1: library; a variant is named by its letters at N, in order (parent)
chain: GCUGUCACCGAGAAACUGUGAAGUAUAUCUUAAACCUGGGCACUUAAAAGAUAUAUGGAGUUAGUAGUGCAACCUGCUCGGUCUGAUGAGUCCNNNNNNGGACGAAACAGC

Variants of: B1
Assay: normalized RNA/DNA level with ligand (relative to sTRSVctl = 100) (log10 (% of sTRSVctl)); HEK293T; ligand: cyclic di-GMP (c-di-GMP-II aptamer); ligand concentration (+) RNA-Seq: 1 mM; higher = less ribozyme self-cleavage, higher mRNA level
Settings: reporter: mCherry (pCS4076), ligand present: yes
Listing of entries alongside the reported normalized RNA/DNA level with ligand (log10).
Observable: normalized RNA/DNA level with ligand (log10)

> print(dat)
    variant.description  endpoint.result
 1               AGGGUA              1.6
 2               ACAGCA             1.75
 3               UGGAUG             1.82
 4               GUCUAA             1.72
 5               AGUAUC             1.81
 6               CCGUGG             1.69
 7               UCGCUG             1.84
 8               AAUCCC             1.86
 9               ACUUGC             1.83
10               GAUGAC             1.82
11               CAUCGU             1.83
12               UAACAG             1.86
13               UCUUUG             1.89
14               CAAACA             1.62
15               CUUUCC             1.93
16               CGCGCA             1.75
17               CAGUAU             1.58
18               GUACUC             1.75
19               ACUAUU              1.7
20               UUUCCG             1.92
21               GAUGAG             1.71
22               CGGACU             1.64
23               UCAGGG             1.81
24               AGAAUU              1.8
25               UCGCCU             1.92
26               UUAUUG             1.83
27               CCGAUA             1.54
28               GUUCCA             1.81
29               AGCGUA             1.71
30               GUAAAC             1.74
